Cited source: the supplement of paper PMC6992640

tested on: WHIM30 (cells of a triple-negative basal-like breast cancer xenograft); experiment: cell viability of combination (% of vehicle); higher = less cytotoxic; settings: 1 µM; 72 h; partner dose: 10 nM
// classify: if (cell viability of combination < 20) rule met else rule not met

molecule	classification
COCCOC(=O)C1=C(C)NC(C)=C(C(=O)OCC=Cc2ccccc2)C1c1cccc([N+](=O)[O-])c1 (configuration not stated) [Cilnidipine] + CC(C)C[C@H](NC(=O)[C@H](CCc1ccccc1)NC(=O)CN1CCOCC1)C(=O)N[C@@H](Cc1ccccc1)C(=O)N[C@@H](CC(C)C)C(=O)[C@@]1(C)CO1 [Carfilzomib]	rule met
Cl.O.O=C1Cc2cc(CCN3CCN(c4nsc5ccccc45)CC3)c(Cl)cc2N1 [Ziprasidone hydrochloride monohydrate] + CC(C)C[C@H](NC(=O)[C@H](CCc1ccccc1)NC(=O)CN1CCOCC1)C(=O)N[C@@H](Cc1ccccc1)C(=O)N[C@@H](CC(C)C)C(=O)[C@@]1(C)CO1 [Carfilzomib]	rule not met
CN(C)CC=CC(=O)Nc1cc2c(Nc3ccc(F)c(Cl)c3)ncnc2cc1OC1CCOC1 (configuration not stated) [Afatinib (BIBW2992)] + CC(C)C[C@H](NC(=O)[C@H](CCc1ccccc1)NC(=O)CN1CCOCC1)C(=O)N[C@@H](Cc1ccccc1)C(=O)N[C@@H](CC(C)C)C(=O)[C@@]1(C)CO1 [Carfilzomib]	rule met
CCOC(=O)c1c(CSc2ccccc2)n(C)c2cc(Br)c(O)c(CN(C)C)c12.Cl [Arbidol HCl] + CC(C)C[C@H](NC(=O)[C@H](CCc1ccccc1)NC(=O)CN1CCOCC1)C(=O)N[C@@H](Cc1ccccc1)C(=O)N[C@@H](CC(C)C)C(=O)[C@@]1(C)CO1 [Carfilzomib]	rule not met
CCc1c(Cl)c(O)c(Cl)c(O)c1C(=O)OC1C(C)OC(OCC2=CC=CCC(O)C(C)=CC(CC)C(OC3OC(C)(C)C(OC(=O)C(C)C)C(O)C3O)C(C)=CC(C)=CCC(C(C)O)OC2=O)C(OC)C1O (configuration not stated) [Fidaxomicin] + CC(C)C[C@H](NC(=O)[C@H](CCc1ccccc1)NC(=O)CN1CCOCC1)C(=O)N[C@@H](Cc1ccccc1)C(=O)N[C@@H](CC(C)C)C(=O)[C@@]1(C)CO1 [Carfilzomib]	rule not met
O=C(O)CO.[NH2-].[NH2-].[Pt+2] [Nedaplatin] + CC(C)C[C@H](NC(=O)[C@H](CCc1ccccc1)NC(=O)CN1CCOCC1)C(=O)N[C@@H](Cc1ccccc1)C(=O)N[C@@H](CC(C)C)C(=O)[C@@]1(C)CO1 [Carfilzomib]	rule met
